Below, each entry is listed alongside its reported IC50.
measured-on: C5aR (Homo sapiens, UniProt P21730)
Sequence (P21730 1-350): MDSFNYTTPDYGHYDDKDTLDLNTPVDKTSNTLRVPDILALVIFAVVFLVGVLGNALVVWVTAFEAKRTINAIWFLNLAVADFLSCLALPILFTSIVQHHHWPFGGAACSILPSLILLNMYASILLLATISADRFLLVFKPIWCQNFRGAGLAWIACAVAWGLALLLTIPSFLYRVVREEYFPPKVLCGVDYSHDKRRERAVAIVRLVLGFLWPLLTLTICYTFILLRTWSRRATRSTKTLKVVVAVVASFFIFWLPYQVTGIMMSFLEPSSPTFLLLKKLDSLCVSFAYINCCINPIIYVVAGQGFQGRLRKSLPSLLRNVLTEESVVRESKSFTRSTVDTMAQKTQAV
assay: Intracellular calcium release assay in HMDM against rhC5a
recorded-conditions: IC50, C5a 300 nM, HMDM calcium release
attribute-measured: IC50 (µM)

INSERT INTO assay_data (molecule, attribute_measured, unit_of_measurement, recorded_measurement) VALUES
  ('COc1ccc2c(c1)C(C(=O)N(Cc1ccc(N(C)C)cc1)c1ccc(C(C)C)cc1)CCC2 (centres unmarked)', 'IC50', 'µM', 1.46),
  ('CCc1cccc(CC)c1-c1cc(OC(C)C)c2c(n1)CCCC2Nc1ccccc1CCO (centres unmarked)', 'IC50', 'µM', 1.07);

Every entry's value here was drawn from paper PMC4837355.
